assay: Volume of distribution at steady state in iv dosed mouse; assay type: ADME, organism-based; details: in vivo, read-out: Vdss
attribute-measured: Vd

>>> df
                              line_notation  value_observed
0  CC(C)c1onc(-c2c(Cl)cccc2Cl)c1COc1ccc(-c2ccc3c(C(=O)O)cccc3c2)cc1        0.4 L/kg

---

target: Cytochrome P450 3A4 (Homo sapiens); assay: Inhibition of CYP3A4 in pooled human liver microsome using atrovastatin substrate; format: ADME, microsomes
Sequence (P08684 whole entry): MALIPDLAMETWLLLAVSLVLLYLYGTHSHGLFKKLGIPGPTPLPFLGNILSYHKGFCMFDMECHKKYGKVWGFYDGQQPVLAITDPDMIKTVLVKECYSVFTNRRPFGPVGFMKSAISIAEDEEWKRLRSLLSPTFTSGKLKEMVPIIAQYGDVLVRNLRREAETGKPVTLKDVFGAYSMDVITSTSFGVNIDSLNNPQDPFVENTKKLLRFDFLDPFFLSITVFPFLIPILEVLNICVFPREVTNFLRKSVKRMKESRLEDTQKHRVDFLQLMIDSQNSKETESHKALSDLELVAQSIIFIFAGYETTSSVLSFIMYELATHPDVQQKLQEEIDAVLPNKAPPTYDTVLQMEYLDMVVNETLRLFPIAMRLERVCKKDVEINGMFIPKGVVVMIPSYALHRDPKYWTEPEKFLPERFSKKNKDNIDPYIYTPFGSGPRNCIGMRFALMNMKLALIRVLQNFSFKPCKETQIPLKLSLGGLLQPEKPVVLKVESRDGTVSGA
pIC50: −log10 of the molar value.
attribute-measured: pIC50

                              line_notation  value_observed
0  CC(C)c1onc(-c2c(Cl)cccc2Cl)c1COc1ccc(-c2ccc3c(C(=O)O)cccc3c2)cc1            5.34

Recorded values, source ChEMBL document CHEMBL1155854.
